Test system: SEM cells
test: cell viability relative to DMSO control; higher = less cytotoxic
conditions: HPLM + 10% dialyzed FBS; 48 h; 0.569 µM
// reported cell viability per item

# compound, tested_on, cell viability (%)
records = [
    ("COc1ccc2c(c1)[C@]13CCCCC1C(C2)N(C)CC3 (stereo partly specified)", "SEM cells", 103),
    ("NC(=O)c1ccc(N(C(N)=O)c2c(F)cccc2F)nc1-c1ccc(F)cc1F", "SEM cells", 106),
    ("Cc1coc2c1C(=O)C(=O)c1c-2ccc2c1CCCC2(C)C", "SEM cells", 97.1),
    ("CCCCCCCCCCCCCC(=O)N[C@H](CO)[C@H](O)c1ccc([N+](=O)[O-])cc1", "SEM cells", 79.7),
    ("CC1=CC(=CC(=C1C\\C2=N\\CCN2)C)C(C)(C)C", "SEM cells", 97.4),
    ("Nc1c2c(nc3ccccc13)CCCC2", "SEM cells", 101),
    ("C=C[C@H]1CN2CCC1C[C@@H]2C(O)c1ccnc2ccc(OC)cc12 (stereo partly specified)", "SEM cells", 121),
    ("COc1ccc(C(=O)CC2(O)C(=O)Nc3c(Cl)ccc(Cl)c32)cc1 (stereo unspecified)", "SEM cells", 113),
    ("Cc1cccc(Nc2ccncc2[S+](=O)([O-])NC(=O)NC(C)C)c1", "SEM cells", 98.6),
    ("COc1c(C)c2c(c(O)c1C/C=C(\\C)CCC(=O)O)C(=O)OC2", "SEM cells", 120),
    ("CCOC(=O)\\C1=C\\[C@]2(CC)CCCN3CCC4=C([C@H]23)[N]1C5=C4C=CC=C5", "SEM cells", 104),
    ("C[C@]12CC[C@H]3[C@@H](CCC4=CC(=O)CC[C@@H]43)[C@@H]1CC[C@@H]2OC(=O)CCc1ccccc1", "SEM cells", 94.3),
    ("CN(C)CC(C)(C)CNc1nn2c(-c3ccccc3)nnc2cc1C1CCC1", "SEM cells", 5.79),
    ("O=P(O)(O)C(O)(Cn1ccnc1)P(=O)(O)O", "SEM cells", 107),
    ("CC(C)c1cc(C(C)C)c(CC(=O)N[S+](=O)([O-])Oc2c(C(C)C)cccc2C(C)C)c(C(C)C)c1", "SEM cells", 108),
    ("Cc1ccnc2c1NC(=O)c1cccnc1N2C1CC1", "SEM cells", 106),
]
